Overview of recorded inhibition for various compounds
- system: Tubulin beta-1 chain (Homo sapiens)
- protocol: Percent inhibition of tubulin polymerization at 0.3 uM concentration
- Format: functional
Write the number in % without appending the unit.

Use these answered entries as a reference point.
compound: CN[C@H](C(=O)N[C@H](C(=O)N(C)[C@H](/C=C(\C)C(=O)O)C(C)C)C(C)(C)C)C(C)(C)C1CCCCC1
inhibition (%): 93
--
compound: CS[C@@H](C(=O)N[C@H](C(=O)N(C)[C@H](/C=C(\C)C(=O)O)C(C)C)C(C)(C)C)C(C)(C)c1ccccc1
inhibition (%): 79
--
compound: C=CC[C@@H](C(=O)N[C@H](C(=O)N(C)[C@H](/C=C(\C)C(=O)O)C(C)C)C(C)(C)C)C(C)(C)c1ccccc1
inhibition (%): 63
--
compound: CCCC[C@@H](/C=C(\C)C(=O)O)N(C)C(=O)[C@@H](NC(=O)[C@@H](NC)C(C)(C)c1ccccc1)C(C)(C)C
inhibition (%): 52
--
compound: CN[C@H](C(=O)N[C@H](C(=O)N(C)[C@H](/C=C(\C)C(=O)O)C(C)C)C(C)(C)C)[C@@H](C)c1ccccc1
inhibition (%): 84

Enquiry: Note down inhibition recorded for CN[C@@H](C(=O)N[C@H](C(=O)N(C)[C@H](/C=C(\C)C(=O)O)C(C)C)C(C)(C)C)C(C)(C)c1ccccc1 (single isomer, unassigned)
Return: 91

Enquiry: Find the measured inhibition of C/C(=C\[C@H](C(C)C)N(C)C(=O)[C@@H](NC(=O)[C@@H](N(C)C)C(C)(C)c1ccccc1)C(C)(C)C)C(=O)O and report it.
Return: 93

* * *

- system: Tubulin beta-1 chain (Homo sapiens, UniProt Q9H4B7)
- Sequence (Q9H4B7 whole entry): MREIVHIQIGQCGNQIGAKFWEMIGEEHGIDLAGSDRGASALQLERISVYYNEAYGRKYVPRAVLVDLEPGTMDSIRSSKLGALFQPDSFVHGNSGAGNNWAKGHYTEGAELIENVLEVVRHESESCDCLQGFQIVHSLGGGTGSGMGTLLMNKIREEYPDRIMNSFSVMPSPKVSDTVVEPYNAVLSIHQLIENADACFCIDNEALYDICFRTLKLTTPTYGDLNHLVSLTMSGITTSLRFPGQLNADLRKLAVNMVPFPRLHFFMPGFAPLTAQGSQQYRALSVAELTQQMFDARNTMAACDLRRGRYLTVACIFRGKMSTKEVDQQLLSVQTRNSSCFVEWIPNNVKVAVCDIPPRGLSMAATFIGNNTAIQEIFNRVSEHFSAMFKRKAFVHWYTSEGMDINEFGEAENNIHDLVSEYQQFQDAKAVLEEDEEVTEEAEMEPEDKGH
- protocol: Binding affinity towards tubulin
Recorded Kd for the following compounds
Only the number, expressed in µM, is required.

compound: CN[C@H](C(=O)N[C@H](C(=O)N(C)[C@H](/C=C(\C)C(=O)O)C(C)C)C(C)(C)C)C(C)(C)c1ccccc1 [TALTOBULIN]
Kd / µM: 0.26
//
compound: CN[C@H](C(=O)N[C@H](C(=O)N(C)[C@H](/C=C(\C)C(=O)O)C(C)C)C(C)(C)SC)C(C)(C)c1ccccc1
Kd / µM: 0.7

Enquiry: # return recorded Kd for entry CN[C@H](C(=O)N[C@H](C(=O)N(C)[C@H](/C=C(\C)C(=O)O)C(C)C)C(C)(C)C)C(C)(C)c1ccc(OC)cc1
Return: 0.7

* * *

- Tested on: HCT-15
- protocol: Inhibitory concentration against HCT-15 cells was evaluated
- Type: functional, cell-based
- condition.summary: Homo sapiens
In this section we review reported IC50 values for a set of compounds.
Write the number in nM without appending the unit.

compound: CNC(=O)/C(C)=C/[C@H](C(C)C)N(C)C(=O)[C@@H](NC(=O)[C@@H](NC)C(C)(C)c1ccccc1)C(C)(C)C
system: HCT-15
metric.name: IC50
endpoint.value: 25.5
//
compound: CN[C@@H](C(=O)N[C@H](C(=O)N(C)[C@H](/C=C(\C)C(=O)O)C(C)C)C(C)(C)C)C(C)(C)c1ccccc1 (single isomer, unassigned)
system: HCT-15
metric.name: IC50
endpoint.value: 58
//
compound: C/C(=C\[C@H](C(C)C)N(C)C(=O)[C@@H](NC(=O)[C@@H](C)C(C)(C)c1ccccc1)C(C)(C)C)C(=O)O
system: HCT-15
metric.name: IC50
endpoint.value: 1200

Enquiry: Please report the measured IC50 for CCOC(=O)/C(C)=C/[C@H](C(C)C)N(C)C(=O)[C@@H](NC(=O)[C@@H](NC)C(C)(C)c1ccccc1)C(C)(C)C
Return: 575

* * *

- system: Tubulin beta-1 chain (Homo sapiens)
- protocol: Percent inhibition of tubulin polymerization at 0.3 uM concentration
- Assay type: functional
metric.name: inhibition (%)
Write the number in % without appending the unit.

compound: C/C(=C\[C@H](C(C)C)N(C)C(=O)[C@@H](NC(=O)CC(C)(C)c1ccccc1)C(C)(C)C)C(=O)O
endpoint.value: 21

compound: C=CC[C@H](C(=O)N[C@H](C(=O)N(C)[C@H](/C=C(\C)C(=O)O)C(C)C)C(C)(C)C)C(C)(C)c1ccccc1
endpoint.value: 63

compound: CNCC(=O)N[C@H](C(=O)N[C@H](C(=O)N(C)[C@H](/C=C(\C)C(=O)O)C(C)C)C(C)(C)C)C(C)(C)c1ccccc1
endpoint.value: 4

Enquiry: Note inhibition for the compound shown: CN[C@H](C(=O)N[C@H](C(=O)N(C)[C@@H](/C=C(\C)C(=O)O)C(C)C)C(C)(C)C)C(C)(C)c1ccccc1 (single isomer, unassigned)
Return: 0

Enquiry: Give the value of inhibition reported for the following: CC[C@H](C(=O)N[C@H](C(=O)N(C)[C@H](/C=C(\C)C(=O)O)C(C)C)C(C)(C)C)C(C)(C)c1ccccc1
Return: 54

Enquiry: Using known records, supply inhibition for C/C(=C\[C@H](C(C)C)N(C)C(=O)[C@@H](NC(=O)[C@H](Cc1ccccc1)C(C)(C)c1ccccc1)C(C)(C)C)C(=O)O
Return: 46

Enquiry: Indicate the recorded inhibition value for this compound: CN[C@H](C(=O)N[C@H](C(=O)N(C)[C@H](/C=C(\C)C(=O)O)C(C)C)C(C)(C)C)C(C)(C)c1ccccc1
Return: 88

* * *

- Test system: LOX IMVI
- protocol: Inhibitory concentration against Lox melanoma cells
- Type: functional, cell-based
- condition.summary: Homo sapiens
// pIC50 lookup, one value per entry
Note: pIC50 values are expressed as the negative base-10 logarithm of concentration in M.

Please review the following examples before continuing.
compound: CN[C@H](C(=O)N[C@H](C(=O)N[C@H](/C=C(\C)C(=O)O)C(C)C)C(C)(C)C)C(C)(C)c1ccccc1
metric.name: pIC50
endpoint.value: 7.64

compound: CN[C@H](C(=O)N[C@H](C(=O)N(C)[C@H](/C=C(\C)C(=O)O)C(C)C)C(C)(C)SC)C(C)(C)c1ccccc1
metric.name: pIC50
endpoint.value: 8.52

compound: CN[C@H](C(=O)N[C@H](C(=O)N(C)[C@H](/C=C(\C)C(=O)O)C(C)C)C(C)(C)C)C(C)(C)c1ccccc1
metric.name: pIC50
endpoint.value: 8.85

compound: CN[C@@H](C(=O)N[C@H](C(=O)N(C)[C@H](/C=C(\C)C(=O)O)C(C)C)C(C)(C)C)C(C)(C)c1ccccc1 (single isomer, unassigned)
metric.name: pIC50
endpoint.value: 7.43

compound: CCOC(=O)/C(C)=C/[C@H](C(C)C)N(C)C(=O)[C@@H](NC(=O)[C@@H](NC)C(C)(C)c1ccccc1)C(C)(C)C
metric.name: pIC50
endpoint.value: 7.86

Enquiry: Look up and report measured pIC50 for this entry: CC/C(=C\[C@H](C(C)C)N(C)C(=O)[C@@H](NC(=O)[C@@H](NC)C(C)(C)c1ccccc1)C(C)(C)C)C(=O)O
Return: 8.20

Enquiry: Give reported pIC50 value for C/C(=C\[C@H](C(C)C)N(C)C(=O)[C@@H](NC(=O)[C@@H](C)C(C)(C)c1ccccc1)C(C)(C)C)C(=O)O
Return: 5.86

Enquiry: Assign pIC50 to the following record: CN[C@H](C(=O)N[C@H](C(=O)N(C)[C@H](/C=C(\C)C(=O)O)C(C)C)C(C)(C)C)C(C)(C)c1ccc(OC)cc1
Return: 8.96

Enquiry: Look up and state reported pIC50 for CC(=O)O[C@H]1C(=O)[C@@]2(C)[C@H]([C@H](OC(=O)c3ccccc3)[C@]3(O)C[C@H](OC(=O)[C@H](O)[C@@H](NC(=O)c4ccccc4)c4ccccc4)C(C)=C1C3(C)C)[C@]1(OC(C)=O)CO[C@@H]1C[C@@H]2O
Return: 7.76

* * *

- system: UniProt Q9H4B7
- protocol: Percent inhibition of tubulin polymerization at 0.3 uM concentration
- Type: functional
inhibition values for the compounds below.
Kindly write the number and append the unit.

compound: CN[C@H](C(=O)N[C@H](C(=O)N(C)[C@H](/C=C(\C)C(=O)N1CCOCC1)C(C)C)C(C)(C)C)C(C)(C)c1ccccc1
system: UniProt Q9H4B7
endpoint.value: 69%

Enquiry: Look up and report measured inhibition for this entry: CN[C@H](C(=O)N[C@H](C(=O)N[C@H](/C=C(\C)C(=O)O)C(C)C)C(C)(C)C)C(C)(C)c1ccccc1
Return: 79%

Enquiry: Quote inhibition reported for CN[C@H](C(=O)N[C@H](C(=O)N(C)[C@H](/C=C(\C)C(=O)O)C(C)C)C(C)(C)C)C(C)(C)C please.
Return: 43%

Enquiry: Provide inhibition value for the following compound: CN[C@H](C(=O)N[C@H](C(=O)N(C)[C@H](/C=C(\C)C(=O)O)C(C)C)C(C)(C)C)[C@H](C)c1ccccc1
Return: 77%

Enquiry: Please indicate inhibition recorded for C/C(=C\[C@H](C(C)C)N(C)C(=O)[C@@H](NC(=O)[C@@H](N)C(C)(C)c1ccccc1)C(C)(C)C)C(=O)O (stereo in doubt; 63)
Return: 49%

Enquiry: For CN[C@H](C(=O)N[C@H](C(=O)N(C)[C@H](/C=C(\C)C(=O)O)C(C)C)C(C)(C)C)C1(c2ccccc2)CCCC1 , write its inhibition.
Return: 77%

Enquiry: Consider the compound CN[C@H](C(=O)N[C@H](C(=O)N(C)[C@H](/C=C(\C)C(=O)N1CCN(Cc2ccccc2)CC1)C(C)C)C(C)(C)C)C(C)(C)c1ccccc1 and give its recorded inhibition.
Return: 29%
